tested on: IL-6-GFP PC-9; test: cell viability (CCK-8 OD) relative to DMSO control (fraction of control); higher = more viable cells; conditions: compound concentration: 10 uM; treatment time: 48 h
cell viability by entry:
Number only, no unit.

Answered examples (5):
Nc1ccn(C2OC(CO)C(O)C2O)c(=O)n1 (stereo unspecified) ... 0.789
CCS(=O)(=O)N1CC(CC#N)(n2cc(-c3ncnc4[nH]ccc34)cn2)C1.O=P(O)(O)O [Baricitinib phosphate] ... 1.09
CC1(C(=O)O)CCC2(C)CCC3(C)C(=CC(=O)C4C5(C)CCC(OC6OC(C(=O)O)C(O)C(O)C6OC6OC(C(=O)O)C(O)C(O)C6O)C(C)(C)C5CCC43C)C2C1.N (stereo unspecified) [Ammonium Glycyrrhizinate] ... 1.31
CCCCCCNC(=O)n1cc(F)c(=O)[nH]c1=O ... 0.906
CC(=O)OC1C(=O)C2(C)C(O)CC3OCC3(OC(C)=O)C2C(OC(=O)c2ccccc2)C2(O)CC(OC(=O)C(O)C(NC(=O)c3ccccc3)c3ccccc3)C(C)=C1C2(C)C (stereo unspecified) ... 0.57

Request: Quick one: give measured cell viability for CC(CN1c2ccccc2Sc2ccccc21)N(C)C.Cl (stereo unspecified) [Promethazine HCl]
Result: 1.05

Request: Fill in reported cell viability for this entry: CN1C(=O)/C(=C2/C(=O)Nc3ccccc32)c2ccccc21
Result: 1.02

---

system: IL-6-GFP PC-9GR; assay: cell viability (CCK-8 OD) relative to DMSO control (fraction of control); higher = more viable cells; conditions: compound concentration: 10 uM; treatment time: 48 h
Property label: cell viability
Just the number, please, no unit after it.

Cc1ccc(S(=O)(=O)O)cc1.NC(=O)c1cccc2cn(-c3ccc(C4CCCNC4)cc3)nc12 (centres undefined) [Niraparib (MK-4827) tosylate] ... 0.764
Cn1cc(C2=C(c3cccc(N)c3)C(=O)NC2=O)c2ccccc21 ... 0.303
CCC(=O)OCC(=O)C1(OC(=O)CC)C(C)CC2C3CCC4=CC(=O)C=CC4(C)C3(Cl)C(O)CC21C (centres undefined) [Beclomethasone dipropionate] ... 0.987
Cc1cc2ncc(C(=O)NCC(C)(C)NCC(=O)N3CCCC3C#N)cn2n1 (centres undefined) ... -0.0161
CCCCCCCCCCCC1=C(O)C(=O)C=C(O)C1=O ... 0.858
Cc1c(-c2ccc(-c3ccccc3F)cc2)nc2ccc(F)cc2c1C(=O)O ... 0.402
Cl.c1ccc(CN(CC2=NCCN2)c2ccccc2)cc1 [Antazoline HCl] ... 0.998
CCC(C)C(=O)OC1CC(C)C=C2C=CC(C)C(CCC3CC(O)CC(=O)O3)C21 (centres undefined) ... 1.23

Request: Please give measured cell viability of the following entry: O=C(O)CCCCC1CCSS1 (stereo not drawn) [(+)-α-Lipoic acid]
Result: 1.26

---

system: IL-6-GFP PC-9; assay: cell viability (CCK-8 OD) relative to DMSO control (fraction of control); higher = more viable cells; settings: compound concentration: 10 uM; treatment time: 48 h
Consider the following compounds and their measured cell viability readings.
API doc: respond with a numeric literal and nothing else, no unit.

O=c1c(-c2ccc(O)cc2)coc2cc(O)cc(O)c12 [Genistein] ... 0.58
NCCc1c[nH]cn1 [Histamine] ... 1.29
O=C1OC(OC(=O)c2cccnc2Nc2cccc(C(F)(F)F)c2)c2ccccc21 (stereo unspecified) [Talniflumate] ... 0.967
CC(=O)OC12COC1CC(O)C1(C)C(=O)C(O)C3=C(C)C(OC(=O)C(O)C(NC(=O)OC(C)(C)C)c4ccccc4)CC(O)(C(OC(=O)c4ccccc4)C21)C3(C)C.O.O.O (stereo unspecified) [Docetaxel Trihydrate] ... 0.631
CC(=O)OC1CCC2(C)C(CCC3(C)C2C(=O)C=C2C4C(C)C(C)CCC4(C)CCC23C)C1(C)C(=O)O (stereo unspecified) ... 1.09
O.S=c1nc[nH]c2nc[nH]c12 [6-Mercaptopurine (6-MP) Monohydrate] ... 0.978
CC(=O)OC1(C(C)=O)CCC2C3CC(C)C4=CC(=O)C=CC4(C)C3(F)C(O)CC21C (stereo unspecified) [Fluorometholone Acetate] ... 0.947
CCCCC(=O)OC1(C(=O)CO)C(C)CC2C3CCC4=CC(=O)C=CC4(C)C3(F)C(O)CC21C (stereo unspecified) [Betamethasone Valerate] ... 0.804
CC1CC2C3CCC4=CC(=O)C=CC4(C)C3(F)C(O)CC2(C)C1(O)C(=O)CO (stereo unspecified) [Dexamethasone (DHAP)] ... 0.732
C#Cc1cccc(Nc2ncnc3cc(OCCOC)c(OCCOC)cc23)c1 [Erlotinib] ... 0.616

Request: Respond only with cell viability recorded for CC1CC2C3CCC4=CC(=O)C=CC4(C)C3(Cl)C(O)CC2(C)C1(OC(=O)c1ccco1)C(=O)CCl (stereo unspecified) [Mometasone furoate]
Result: 0.93

Request: Using known records, supply cell viability for CCC(C(=O)O)c1ccc(N2Cc3ccccc3C2=O)cc1 (stereo unspecified) [Indobufen]
Result: 1.11
